target: Histone deacetylase 3 (Homo sapiens, UniProt O15379); assay: Inhibition of HDAC3 (unknown origin) incubated for 30 mins by fluorescence based microplate reader analysis
Sequence (O15379 whole entry): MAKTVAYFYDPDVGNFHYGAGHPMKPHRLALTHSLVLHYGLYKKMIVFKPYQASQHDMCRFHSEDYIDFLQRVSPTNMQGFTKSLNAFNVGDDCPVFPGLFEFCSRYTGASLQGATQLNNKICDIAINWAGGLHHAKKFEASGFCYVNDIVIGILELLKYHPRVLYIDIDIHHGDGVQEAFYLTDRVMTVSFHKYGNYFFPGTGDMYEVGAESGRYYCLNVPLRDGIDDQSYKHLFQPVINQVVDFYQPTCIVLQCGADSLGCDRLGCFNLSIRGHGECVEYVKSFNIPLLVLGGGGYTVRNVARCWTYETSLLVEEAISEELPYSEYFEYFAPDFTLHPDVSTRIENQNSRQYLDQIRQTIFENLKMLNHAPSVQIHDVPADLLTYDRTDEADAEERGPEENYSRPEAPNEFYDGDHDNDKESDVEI
parameter measured: pIC50
On this scale, pIC50 is minus log10 of a concentration expressed in M (mol/L).

Task: So what's the measured pIC50 for this one? `O=C(CCCCCCC(=O)Nc1nc2c(s1)C[C@@H](NC(=O)c1cccc3ccccc13)CC2)NO`
Output: 8.85

----------
system: SK-OV-3; assay: cells; assay type: functional, cell-based; conditions: Homo sapiens, SK-OV-3, 48 h
parameter measured: IC50 (nM)
Answer in nM, number only, no unit symbol.

Task: GET /values?readout=IC50&item= `Cn1cc(CCCC(=O)Nc2ccc(C(=O)NO)cc2)c2ccccc21`
Output: 160
